These measurements were taken from PubChem BioAssay AID1159580.

- Test Method Notes: chemical genetic growth profiling, strain panel (AID 1159580);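 further: tested at 20 µM; growth read once vehicle control cultures reached saturation at 30 °C; 1 = growth at the plate median or of vehicle wells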
- Condition Context: S. cerevisiae deletion strains, growth OD, locus YDL005C, strain med2
Among all 5,500 compounds or so, about 2,000 (36%) were called active. Another 18% or so got no clear call; they are omitted. No stated cut-off is given here; in the data, active means normalized growth mostly below about 0.91 (no sharp cut-off); inconclusive means no clear call, values can overlap the other calls; inactive means mostly above about 0.92. The list shows a part of the results.
Select the correct class. Options are active, inactive and nothing else.

See these solved cases before continuing.
compound=CNCCC=C1c2ccccc2CCc2ccccc21 group=inactive
compound=O=C(O)c1nc2cc(Cl)c(Cl)cc2[nH]c1=O group=inactive
compound=CC1=NCCc2c1[nH]c1cc(O)ccc21 group=inactive

Record lookup: outcome of this test for COc1ccc(-c2cc(=O)c3ccccc3o2)cc1OC ?
inactive

Please state the recorded outcome for this compound: COc1ccc2cc3[n+](cc2c1OC)CCc1cc2c(cc1-3)OCO2
inactive

Record lookup: outcome of this test for Cc1cc2cc3c(C)cc(=O)oc3c(C)c2o1 ?
inactive

Record request — test call for CCOC(=O)C1C(C=C(C)C)C1(C)C (configuration not stated)
inactive

Per the records of this test, what outcome belongs to NCCc1ccc(O)cc1 ?
inactive

Field: outcome | Entry: CC(=O)O[C@@H]1CC2C(C)(C)CCC(=O)[C@]2(C)C2CC[C@@]3(C)[C@H](c4ccoc4)OC(=O)C4OC43[C@@]21C (some centres not stated)
inactive

Lab log entry: O=c1c(-c2ccccc2)coc2cc(O)cc(O)c12 — outcome as called in the assay?
inactive

Recorded call for CN(C)CCC=C1c2ccccc2C=Cc2ccccc21 ?
inactive

Which outcome was assigned to C[C@@H]1CC[C@@]2(OC1)OC1C(O)C3C4CC[C@H]5C[C@H](O[C@@H]6O[C@H](CO)[C@H](O[C@@H]7O[C@H](CO)[C@@H](O)[C@H](O[C@@H]8OC[C@@H](O)[C@H](O)[C@H]8O)[C@H]7O[C@@H]7O[C@H](CO)[C@H](O)[C@H](O[C@@H]8O[C@H](CO)[C@@H](O)[C@H](O)[C@H]8O)[C@H]7O)[C@H](O)[C@H]6O)[C@H](O)C[C@]5(C)C4CC[C@]3(C)C1[C@@H]2C (some centres not stated) in this test?
inactive

---

- Test Method Notes: chemical genetic growth profiling, strain panel (AID 1159580)
- Condition Context: S. cerevisiae deletion strains, growth OD, locus YML120C, strain ndi1, stronger effect = lower value
In all, about 5,500 compounds went through this assay and about 2,000 (36%) were called active. Not shown: some 18% with an inconclusive outcome. Some of the results follow.
Test Readout: normalized growth
Could you keep your reply to the number by itself?

Sample records with normalized growth:
compound="C=C1C(N)CC2CC1C2(C)C (centres undefined)" measured_number=1.01
compound=COc1cc([C@@H]2c3cc4c(cc3[C@H](OC(C)=O)[C@H]3COC(=O)[C@H]23)OCO4)cc(OC)c1OC measured_number=1
compound=COc1cc2c(cc1OC)-c1cc3ccc(OC)c(OC)c3c[n+]1CC2 measured_number=0.987

Looking for the measured normalized growth of COc1ccc(-c2cc(=O)c3c(OC(C)=O)cc(OC(C)=O)cc3o2)cc1 , can you help?
0.973

Would you kindly share the measured normalized growth for O=C1CC[C@]23C=CC(=O)NCCCCNCCCNC(=O)/C=C/c4ccc(c2c4)O[C@@H]3C1 ?
0.993

Which normalized growth value is on record for O=c1oc2ccccc2c(O)c1Cc1c(O)c2ccccc2oc1=O ?
1.02

Which normalized growth is listed for C=C1C2CC[C@@]3(C)[C@H](c4ccoc4)OC(=O)C[C@]13O[C@H]1CC(=O)C(C)(C)[C@H](C(O)C(=O)OC)[C@@]21C (some centres undefined) ?
1.01

// returns reported normalized growth for input CC[N+]1(C)CCCC(OC(=O)C(O)(c2ccccc2)c2ccccc2)C1 (centres undefined)
1.01

---

- Test Method Notes: chemical genetic growth profiling, strain panel (AID 1159580)
- Condition Context: S. cerevisiae deletion strains, growth OD, locus YJR043C, strain POL32, stronger effect = lower value
Hit rate of the full screen: of about 5,500 compounds, about 2,000 (36%) were called active. About 18% were inconclusive and are not listed. Some of the results follow.
Test Readout: normalized growth
No unit in the answer, please; the number alone is enough.

compound="C=C1C2CC[C@@]3(C)[C@H](c4ccoc4)OC(=O)C[C@]13O[C@H]1CC(=O)C(C)(C)[C@H](C(O)C(=O)OC)[C@@]21C (stereo not given in full)" measured_number=0.999
compound=CN(N=O)C(=O)N[C@@H]1[C@@H](O)[C@H](O)[C@@H](CO)O[C@@H]1O measured_number=1.01
compound=O=C1CC[C@]23C=CC(=O)NCCCCNCCCNC(=O)/C=C/c4ccc(c2c4)O[C@@H]3C1 measured_number=1.04
compound=COc1cccc(-c2cc(=O)c3cc(OC)ccc3o2)c1 measured_number=0.93

For the next question, use this compound.
Looking for the measured normalized growth of C=CCc1ccccc1OCC(O)CNC(C)C (stereo not given) , can you help?
1

---

- Test Method Notes: chemical genetic growth profiling, strain panel (AID 1159580)
- Condition Context: S. cerevisiae deletion strains, growth OD, locus YOR080W, strain dia2
About 2,000 (36%) of roughly 5,500 compounds were called active. Inconclusive results (about 18%) are left out. Rule as the data show it: active = normalized growth mostly below about 0.91 (no sharp cut-off); inconclusive = no clear call, values can overlap the other calls; inactive = mostly above about 0.92. Some of the results follow.
A correct response names exactly one class from YES (active), NO (inactive)

molecule=O=c1[nH]c2cc(Cl)c(Cl)cc2[nH]c1=O group=NO
molecule=ClC(Cl)=C(c1ccc(Cl)cc1)c1ccc(Cl)cc1 group=NO

Fill in: this test's call for Cn1nnnc1SCC1=C(C(=O)O)N2C(=O)C(NC(=O)C(O)c3ccccc3)C2SC1 (stereo unspecified) is ___
NO

Dear all, I need the recorded test outcome for S=c1ccss1 , thank you.
NO

What did this assay record as the result for COCCOC(=O)C1=C(C)NC(C)=C(C(=O)OC(C)C)C1c1cccc([N+](=O)[O-])c1 (stereo unspecified) ?
NO

Please state the recorded outcome for this molecule: CC(C)(C)C(=O)C(Oc1ccc(Cl)cc1)n1cncn1 (stereo unspecified)
YES

---

- Test Method Notes: chemical genetic growth profiling, strain panel (AID 1159580);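 further: tested at 20 µM; growth read once vehicle control cultures reached saturation at 30 °C; 1 = growth at the plate median or of vehicle wells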
- Condition Context: S. cerevisiae deletion strains, growth OD, locus YNL250W, strain rad50, stronger effect = lower value
The campaign covered roughly 5,500 compounds. About 2,000 (36%) were called active. Another 18% or so got no clear call; they are omitted. Some of the results follow.
Test Readout: normalized growth

Examples from the recorded data:
compound="CSc1ccc2c(c1)C(N1CCN(C)CC1)Cc1ccccc1S2 (stereo not drawn)" test_readout="normalized growth" result="1.01 (inactive)"
compound=NS(=O)(=O)c1cc2c(cc1C(F)(F)F)NCNS2(=O)=O test_readout="normalized growth" result="0.996 (inactive)"

Proceeding to the next compound to report its normalized growth.
Suppose we examine the compound CCN(CC)CCNc1ccc(CO)c2sc3ccccc3c(=O)c12 ; what normalized growth value has been reported?
1 (inactive)

---

- Test Method Notes: chemical genetic growth profiling, strain panel (AID 1159580);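 further: tested at 20 µM; growth read once vehicle control cultures reached saturation at 30 °C; 1 = growth at the plate median or of vehicle wells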
- Condition Context: S. cerevisiae deletion strains, growth OD, locus YKL068W, stronger effect = lower value
About 2,000 (36%) of roughly 5,500 compounds were called active. Roughly 18% stayed inconclusive and do not appear here. This is one part of the list.
Test Readout: normalized growth
Could you respond with only the numeric value?

Some solved entries appear below for comparison.
compound="COC(=O)C[C@H]1C(C)(C)C(=O)[C@@H]2CC3=C4CC(OC)O[C@@H](c5ccoc5)[C@]4(C)CCC3[C@@]1(C)C2=O (stereo partly specified)" test_readout="normalized growth" measured_number=1
compound=NCC(=O)CCC(=O)O test_readout="normalized growth" measured_number=0.995
compound=COc1ccc(-c2cc(=O)c3cc(OC)ccc3o2)cc1 test_readout="normalized growth" measured_number=1
compound=CC(=O)Oc1c(-c2ccccc2)oc2c(CC=C(C)C)c3c(c(OC(C)=O)c2c1=O)C=CC(C)(C)O3 test_readout="normalized growth" measured_number=1.01
compound=CC(=O)N(O)CCCCCNC(=O)CCC(=O)N(O)CCCCCNC(=O)CCC(=O)N(O)CCCCCN test_readout="normalized growth" measured_number=1.05

Next:
Field request: normalized growth | item: CC1(C)O[C@@H]2CC3C4CCC5=CC(=O)C=C[C@]5(C)[C@@]4(F)[C@@H](O)C[C@]3(C)[C@]2(C(=O)CO)O1 (stereo partly specified)
0.999

---

- Test Method Notes: chemical genetic growth profiling, strain panel (AID 1159580);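 further: tested at 20 µM; growth read once vehicle control cultures reached saturation at 30 °C; 1 = growth at the plate median or of vehicle wells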
- Condition Context: S. cerevisiae deletion strains, growth OD, locus YGL167C, strain pmr1, stronger effect = lower value
The whole screen tested about 5,500 compounds, of which about 2,000 (36%) were called active. Inconclusive results (about 18%) are left out. The list shows a part of the results.
Reported normalized growth values are given for each entry in this list.
Reply with just the number.

compound=Nc1nc(N)c2nc(-c3ccccc3)c(N)nc2n1 test_readout="normalized growth" measured_number=1.01
compound="C=C1C(N)CC2CC1C2(C)C (centres undefined)" test_readout="normalized growth" measured_number=0.99
compound=O=c1cc(-c2ccc(O)cc2)oc2ccc(O)cc12 test_readout="normalized growth" measured_number=0.949
compound="CC(=O)[C@H]1CCC2C3CC=C4C[C@@H](OC(=O)CCC(=O)O)CC[C@]4(C)C3CC[C@@]21C (some centres undefined)" test_readout="normalized growth" measured_number=0.928
compound=Nc1nnc(-c2cccc(Cl)c2Cl)c(N)n1 test_readout="normalized growth" measured_number=1.02

What measured normalized growth goes with O=c1cc(-c2cccc(O)c2)oc2ccc(O)cc12 ?
0.942

Quick one: normalized growth of O=c1cc(-c2ccc(O)c(O)c2)oc2ccccc12 ?
0.98

What does the record list as normalized growth for NS(=O)(=O)c1cc2c(cc1C(F)(F)F)NCNS2(=O)=O ?
0.998

Name the reported normalized growth value associated with the compound COc1ccc(-c2cc(=O)c3c(OC)c(OC)c(OC)c(OC)c3o2)cc1
0.972

Entry CC1(C)O[C@@H]2CC3C4C[C@H](F)C5=CC(=O)C=C[C@]5(C)[C@@]4(F)[C@@H](O)C[C@]3(C)[C@]2(C(=O)CO)O1 (some centres undefined) : reported normalized growth = ?
1.01

Need normalized growth, item COc1ccc(-c2cc(=O)c3c(O)c(OC)c(OC)c(OC)c3o2)cc1
0.995

Entry under review: CC(=O)O[C@@H]1CC2C(C)(C)[C@H](O)C[C@H](O)[C@]2(C)C2CC[C@@]3(C)[C@H](c4ccoc4)OC(=O)[C@H]4O[C@]43[C@@]21C (some centres undefined) . Reported normalized growth?
0.995
